B1: ANKRD40 (parent)
chain: VRIQNPSLRENDFIEIELDRQELT

variants of: B1; assay: protein stability index of a GFP-peptide fusion (GPS, HEK-293T) (PSI 1-6); higher = more stable; conditions: c terminus: a fixed tail appended;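 also: lentivirally expressed fusions sorted by FACS into six bins by GFP to DsRed ratio, PSI derived from sequencing read proportions per bin multiplied by bin number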
Catalogue of variants with associated protein stability index
Give only the figure.

ALTERATION	REPORTED_VALUE
N5S	1.74
I16Q	4.68
T24A	2.3
F13C	3.15
Q4W	1.61
I14H	4.66

Indicate its recorded protein stability index; the variant in question is I14N
4.85

// fetch protein stability index given entry L23A
3.58

Return value of protein stability index for input L18F , no commentary.
2.12

Give protein stability index for E10L
1.53

Fill in protein stability index for record R20G
2.56
